- Tested on: NCI-H460 lung
// classify into t = active, f = inactive

Call for entry Cn1cc(-c2csc(-c3ccccc3)n2)c2cccnc21 :
f

Call for entry CC1(C)N=C(N)N=C(N)N1c1ccc(OCC(=O)Nc2ccc(S(=O)(=O)F)cc2Cl)c(Cl)c1 :
f

Call for entry N#CC1=C(N)N=C(N2CCOCC2)C(C#N)C12Nc1ccccc1S2 (centres undefined) :
f

Call for entry CC(C)c1cnc(-c2cc(Cl)ccc2F)cc1Nc1ccncc1C(=O)NC(CO)CO :
f

Call for entry Cc1cc(S(=O)(=O)Nc2nc3ccccc3c(=O)n2Cc2ccco2)c(S)cc1Cl :
f

Call for entry CCCCCCCCCCCCCCCC(=O)NS(=O)(=O)OC[C@H]1O[C@@H](n2cnc3c(N)ncnc32)[C@H](O)[C@@H]1O :
t

Call for entry Nc1nc2ccc(CNc3ccc(C(=O)NC(CC(=O)O)C(=O)O)cc3)cc2c(=O)[nH]1 (centres undefined) :
f

Call for entry COc1ccc2[nH]c(C(=O)OCc3ccc4c(Br)cc(Br)c(O)c4n3)cc2c1 :
f

Call for entry NS(=O)(=O)c1ccc(N=Nc2c(O)[nH]c3ccc(C(=O)NCCCn4ccnc4)cc23)cc1 :
f
